Recorded values, source patent US8580556B2.

Parameter: relative β-galactosidase activity, inducer Ms. Scope: all listed entries.
System: tetA promoter (PtetA)-lacZ reporter in E. coli KM3
Format: cell-based
condition-context: Table 10; metsulfuron 2 ppm; 48 hours at 30° C.
observed-property: relative β-galactosidase activity, inducer Ms

| molecule | value-observed |
| --- | --- |
| L1-9: library L1 hit, sulfonylurea-responsive TetR(B) variant, parent of L2 and L4 (protein, Sulfonylurea responsive repressor L1-09) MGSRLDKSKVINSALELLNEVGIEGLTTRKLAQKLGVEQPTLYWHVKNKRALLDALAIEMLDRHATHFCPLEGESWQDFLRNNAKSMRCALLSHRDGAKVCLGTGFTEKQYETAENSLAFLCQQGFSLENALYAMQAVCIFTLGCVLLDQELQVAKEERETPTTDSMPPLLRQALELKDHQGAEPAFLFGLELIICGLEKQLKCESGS | 0.9 |
| L1-29: library L1 hit, sulfonylurea-responsive TetR(B) variant, SEQ ID NO: 10 (protein, Sulfonylurea responsive repressor L1-29) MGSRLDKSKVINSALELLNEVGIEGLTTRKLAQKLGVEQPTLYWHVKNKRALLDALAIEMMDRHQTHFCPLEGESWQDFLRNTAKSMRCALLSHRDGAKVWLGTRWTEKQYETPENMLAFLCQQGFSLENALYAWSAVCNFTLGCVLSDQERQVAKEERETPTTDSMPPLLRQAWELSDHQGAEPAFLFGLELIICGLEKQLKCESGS | 0.3 |
| L1-44: library L1 hit, sulfonylurea-responsive TetR(B) variant, SEQ ID NO: 13 (protein, Sulfonylurea responsive repressor L1-44) MGSRLDKSKVINSALELLNEVGIEGLTTRKLAQKLGVEQPTLYWHVKNKRALLDALAIEMLDRHATHFCPLEGESWQDFLRNNAKSYRCALLSHRDGAKVYLGTAVTEKQYETAENQLAFLCQQGFSLENALYAVKAVAGFTLGCVLWDQESQVAKEERETPTTASMPPLLRQAVELADHQGAEPAFLFGLELIICGLEKQLKCESGS | 0.5 |
